biological target: UniProtKB P80025
Attribute: IC50
Field: numeric (µM). Do not append units.

These solved cases illustrate the format of a correct answer.
Cc1ccc(NCC(=O)NN)cc1 [(8), 4-methyl-phenylaminoethane-hydrazide] = 2.77
NNC(=O)CNc1ccc(Cl)cc1 [(2), 4-chloro-phenylaminoethane-hydrazide] = 0.03
NNC(=O)CNc1ccccc1F [(3), 2-fluoro-phenylaminoethane-hydrazide] = 0.1
NNC(=O)CNc1ccc(F)cc1 [(1), 4-fluoro-phenylaminoethane-hydrazide] = 0.54
NNC(=O)CNc1ccccc1 [Compound (6), phenylaminoethane-hydrazide] = 4.97

Consider NNC(=O)CNc1cccc(Br)c1 [(5), 3-bromo-phenylaminoethane-hydrazide] . Its measured IC50 is 0.04
